METHOD SUMMARY: NCI Yeast Anticancer Drug Screen. Data for the bub3 strain (AID 167)
MEASUREMENT CONDITIONS: S. cerevisiae bub3 mutant strain, at 33.0 µM
This is part of a sample that, as a whole, favours compounds with a hit. Of some 79,000 tested, about 15% had one in any assay. Active and inactive are the calls of the source. Rule as the data show it: active = growth inhibition above about 70%; inactive = the rest.
Answer with one of the outcomes T (active), F (inactive)

- Cc1ccc2oc(-c3cccc(N)c3)nc2c1: F
- Oc1ccc(Cc2nccc3cc(O)c(O)cc23)cc1O: F
- CCOC(=O)c1sc2[n+](c1C)C(=O)/C(=C/c1cc(OC)c(OC)c(OC)c1)S2: F
- O=c1[nH]c(=O)n(CCCO)cc1F: F
- Cc1[nH]nc(C(F)(F)F)c1N=NN(C)C: T
- O=C1c2ccccc2C2CCC1c1ccccc12 (configuration not stated): F

Turning to the following compound.
Q: What did the test return for c1cncc(C(Nc2cccc3cccnc23)Nc2cccc3cccnc23)c1 ?
A: F

----------
METHOD SUMMARY: NCI Yeast Anticancer Drug Screen. Data for the CLN2oe strain (AID 163);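 also: 0% = growth of vehicle-only control cultures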
MEASUREMENT CONDITIONS: S. cerevisiae CLN2oe strain, at 11.0 µM
The panel holds about 79,000 compounds, 15% with a hit somewhere; the sample as a whole holds those more often. Calls of active or inactive are those of the source. Cut-off read from the data, not from the text of the source: active = growth inhibition above about 70%; inactive = the rest.
Pick from label 1 = active, label 0 = inactive when you respond.

- CCCC(=O)OC(OC(=O)CCC)c1ccc([N+](=O)[O-])o1: label 0
- O=C1C(C(O)(C(F)(F)F)C(F)(F)F)CCC1C(O)(C(F)(F)F)C(F)(F)F (configuration not stated): label 0
- CCCCCCCCCC/C=C\CC(=O)O: label 0
- CCCCOc1ccc(Nc2c3ccccc3nc3ccccc23)cc1: label 1
- Nc1c([N+](=O)[O-])cc2c3c(cccc13)CC2: label 0

Q: Dear colleague, could you share the recorded outcome for Cc1ccc(Nc2n[nH]c(=S)s2)cc1C when you have a moment?
A: label 0

Q: Please indicate how the test categorized CCC(C)/C(C)=N/NC(N)=O (configuration not stated) .
A: label 0

Q: Look up the recorded call for O=C1C(Br)=CC(Br)(Br)C=C1Br in this test.
A: label 0

Q: What was the test verdict on Cc1nc2ccccc2c(=O)n1NC(=O)c1ccc(CS)cc1 ?
A: label 0

Q: Recorded call for Cc1ccc(N(C=O)c2c([N+](=O)[O-])cc([N+](=O)[O-])c3c2=[N+]([O-])CN=3)cc1 ?
A: label 0

Q: How was COc1ccc2nc(N/N=C/c3sccc3C)cc(C)c2c1 classified in this test?
A: label 0

Q: So what was the verdict on CN(C)c1ccc(C(c2ccc(Cl)cc2)c2ccc(N(C)C)cc2)cc1 in this test?
A: label 0

----------
METHOD SUMMARY: NCI Yeast Anticancer Drug Screen. Data for the bub3 strain (AID 167)
MEASUREMENT CONDITIONS: S. cerevisiae bub3 mutant strain, at 50.0 µM (retest, dose inferred, filed as 5.0)
Compounds without any hit were thinned out: in the full panel of roughly 79,000, 15% have a hit. Activity calls are given as the source filed them. Cut-off read from the data, not from the text of the source: active = growth inhibition above about 70%; inactive = the rest.
Choose one outcome from this list and give only that: active, inactive

Sample answers from the record:
- CCCCCCCCCCCCCCCCOCC(Cl)COP(=O)(O)OP(=O)(O)OCC1OC(n2cnc3c(N)ncnc32)C(O)C1O (stereo not given): active
- O=S(=O)(O)c1ccc2c(N=Nc3c(O)ccc4ccccc34)cccc2c1: inactive
- CCOC(=O)C1=C(C)NC(C)=C(C(=O)OCC)C1c1ccc(Cl)cc1: active
- c1ccc(N/N=C2\CC(c3ccccc3)Oc3ccccc32)cc1 (stereo not given): inactive

Consider the record given below.
Q: Hey, what did the test say about BrC/C=C/C[P+](c1ccccc1)(c1ccccc1)c1ccccc1 ?
A: inactive

----------
METHOD SUMMARY: NCI Yeast Anticancer Drug Screen. Data for the sgs1 strain (AID 173);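 also: 0% = growth of vehicle-only control cultures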
MEASUREMENT CONDITIONS: S. cerevisiae sgs1 mutant, at 11.0 µM, active compounds read high
This is part of a sample that, as a whole, favours compounds with a hit. Of some 79,000 tested, about 15% had one in any assay.
Exercise: for every item that follows, state its recorded growth inhibition.
Answers are plain numbers, in %.

Some entries whose results are on file:
- S=c1[nH]nc(Cc2ccccc2)c(=S)[nH]1: 64
- CCC(C)C(=O)OCC(=O)c1ccc(-c2ccccc2)cc1 (stereo unspecified): -1
- O=C1OC(c2ccc(Cl)cc2)Sc2ccccc21 (stereo unspecified): 37
- NCC(O)CSCc1ccc(Cl)cc1 (stereo unspecified): -16
- CC1=NN(C(=O)CC(=O)N(C(=O)c2ccccc2)c2ccc(Cl)cc2)C(=O)C1N=Nc1ccc([N+](=O)[O-])cc1 (stereo unspecified): 46

Proceeding to the next compound to report its growth inhibition.
Q: // growth inhibition lookup, key: Cc1nc2ccccc2c(=O)n1NC(=O)c1ccc(CS)cc1
A: 20

----------
METHOD SUMMARY: NCI Yeast Anticancer Drug Screen. Data for the rad18 strain (AID 177)
MEASUREMENT CONDITIONS: S. cerevisiae rad18 mutant growth inhibition; at 100.0 µM
About 79,000 compounds went through this panel and 15% of them were active in at least one assay; those are over-represented in the sample as a whole. The source made the active and inactive calls. Rule as the data show it: active = growth inhibition above about 70%; inactive = the rest. Starred links: 1 amine or outer side, 2 acyl side, 3 side chain; linkers in the order of their positions; H or OH if unused. Positions of bridges follow the written chain, without caps; N, C: chain ends. Non-standard residues stand in square brackets, D forms with d. Residues, ends and D or L forms follow the SMILES beside them. Chains are numbered I, II in the order given. Actinocin(9to1) = Cc1c2oc3c(C)ccc(C(=O)[*:1])c3nc-2c(C(=O)[*:2])c(N)c1=O; aThr = C[C@H](O)[C@H](N)C(=O)O; NMeV = CN[C@H](C(=O)O)C(C)C; Sar = CNCC(=O)O
Select the correct class. Options are True for active, False for inactive and nothing else.

* [N-]=[N+]=NC1CC(n2ccc(=O)[nH]c2=O)OC1COC(c1ccccc1)(c1ccccc1)c1ccccc1 (stereo unspecified) | True
* Cc1c2oc3c(C)ccc(C(=O)N[C@@H]4C(=O)N[C@H](C(C)C)C(=O)N5CCC[C@H]5C(=O)N(C)CC(=O)N(C)[C@@H](C(C)C)C(=O)O[C@H]4C)c3nc-2c(C(=O)N[C@@H]2C(=O)N[C@H](C(C)C)C(=O)N3CCC[C@H]3C(=O)N(C)CC(=O)N(C)[C@@H](C(C)C)C(=O)O[C@H]2C)c(N)c1=O (I: [aThr][dV]P[Sar][NMeV] / II: [aThr][dV]P[Sar][NMeV]; ester I:1-I:C, II:1-II:C; linker I:N-II:N via Actinocin(9to1)) | True
* CCOC(=O)C1=C(C)NC(C)=C(C(=O)OCC)C1c1cccc([N+](=O)[O-])c1 | True
* CCCCCC/C(C)=N/Nc1ccc([N+](=O)[O-])cc1[N+](=O)[O-] | False
* CCOc1ccc2ccc3cccnc3c2n1 | True

Now consider the entry below.
Q: Each molecule tested received a call. Report the one for CCOC(=O)c1[nH]c2cccc3c2c1CC(Br)C3=O (stereo unspecified) .
A: True

----------
METHOD SUMMARY: NCI Yeast Anticancer Drug Screen. Data for the mec2-1 strain (AID 157)
MEASUREMENT CONDITIONS: S. cerevisiae mec2-1 strain, at 50.0 µM, active compounds read high
Compounds without any hit were thinned out: in the full panel of roughly 79,000, 15% have a hit.
Give growth inhibition for every item shown.
Give bare numbers, in %.

In the examples that follow, each entry is paired with its recorded growth inhibition.
* O=C(Nn1c(-c2ccccc2)nc2ccccc2c1=O)c1ccc(Cl)cc1 | 36.4
* O=[N+]([O-])c1ccc2nnnn2c1 | 43.9
* C#CC1=CC(=O)C(OC)=CC1=O | 62

For every item in the list below, what is its measured growth inhibition?
1. Cc1cc(NC(=S)SCc2ccc(Cl)cc2)ccc1Cl
2. CNc1ccc2[nH]c3ccccc3c2c1
3. CN(C)c1ccc(/C=C/c2ccnc3ccc4ccccc4c23)cc1
4. C[Si](C)(C)Cc1ccccc1C(=O)O
5. O=c1c(Br)cc2c(-c3ccccc3)c3cc(Br)c(O)c(Br)c3oc-2c1Br

A:
1: 92.5; 2: 62.9; 3: 27.3; 4: 97; 5: 78.4

----------
METHOD SUMMARY: NCI Yeast Anticancer Drug Screen. Data for the wt1 strain (AID 149);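 also: 0% = growth of vehicle-treated wt1 cultures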
MEASUREMENT CONDITIONS: S. cerevisiae wt1 strain (SPY 50644) growth inhibition; at 33.0 µM; active compounds read high
Procedure: Growth inhibition of yeast strains with defined genetic alterations is measured as a screen for potential anti-cancer activity. Selected strains with alterations in DNA damage repair or cell cycle control were exposed to compounds and growth inhibition was measured relative to vehicle treated controls. The strain used in this assay is wt1
Compounds without any hit were thinned out: in the full panel of roughly 79,000, 15% have a hit.
Entry class follows growth inhibition: lower level: < 10%; middle level: ≥ 10% and < 70%; upper level: ≥ 70%

Below are worked cases with known answers.
* Cc1ccc2oc(-c3cccc(N)c3)nc2c1 | lower level
* CCN(CC)c1ccc(N=Nc2cc(S(=O)(=O)O)ccc2O)c(O)c1 | middle level
* CCN(CC)c1cccc(Nc2nc3ccccc3s2)c1 | lower level

Q: Classify this compound: CN(C)c1ccc(/C=C/c2ccnc3ccc4ccccc4c23)cc1
A: middle level

Q: Given Nc1cccc2cc(Cl)cnc12 , name the class its growth inhibition places it in.
A: lower level

Q: Category lookup for the compound CCSc1c2ccccc2c(-c2nc(F)nc(F)n2)n1CCc1ccccc1
A: upper level

Q: Please classify: c1ccc2cc(OCC3CO3)c(OCC3CO3)cc2c1 (stereo not given)
A: lower level

Q: Form: Item = NNc1nnc(-c2ccccc2)nc1Cc1ccccc1 ; Class = ?
A: upper level

Q: # bin lookup: classify O=C1OC(c2ccc(Cl)cc2)Sc2ccccc21 (stereo not given) by its growth inhibition
A: upper level

Q: Sort into band: O=C1c2ccc(O)cc2C(=O)c2c(O)ccc(O)c21
A: upper level

Q: Pick a category. Item: Cc1[nH]nc(C(F)(F)F)c1N=NN(C)C
A: upper level

Q: Assign a bin to CCCCCCC(CCl)c1sc(-c2csc(CCNC(=O)OC(C)(C)C)n2)nc1C(=O)OC (stereo not given)
A: lower level

Q: Could you place Cc1ccc2c(/C=C/c3ccc(N(C)C)cc3)ccnc2c1C in its proper category? Many thanks.
A: lower level

Q: Could you tell me which band c1ccc(N/N=C2\CC(c3ccccc3)Oc3ccccc32)cc1 (stereo not given) belongs to?
A: lower level

Q: Into which category would you place Cc1ccc2nc(N/N=C/c3ccc(C)s3)cc(C)c2c1 ?
A: upper level

Q: Form field 'band' for O=CC(=C(I)I)c1ccccc1
A: upper level

Q: Class for O=C(c1c(F)c(F)c(F)c(F)c1F)c1c(F)c(F)c(F)c(F)c1F ?
A: upper level
